- ASSAY_SYSTEM: human IRAK4 kinase domain (aa 154-460) (Homo sapiens)
- Construct: human IRAK4 kinase domain (aa 154-460; GenBank ID AF445802)
- Sequence (Q9NWZ3 154-460): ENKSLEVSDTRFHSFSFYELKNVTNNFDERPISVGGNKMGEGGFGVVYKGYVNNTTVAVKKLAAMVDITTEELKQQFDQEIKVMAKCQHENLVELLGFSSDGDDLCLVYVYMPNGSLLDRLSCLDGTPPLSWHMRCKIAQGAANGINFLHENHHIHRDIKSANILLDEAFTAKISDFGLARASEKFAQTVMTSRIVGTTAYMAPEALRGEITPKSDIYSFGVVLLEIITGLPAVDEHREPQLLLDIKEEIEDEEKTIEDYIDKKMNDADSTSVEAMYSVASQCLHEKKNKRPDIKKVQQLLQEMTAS
- ASSAY_METHOD_TEXT: IRAK4 Enzymatic DELFIA Assay
- ASSAY_SETUP: 0.6 mM ATP (KM); 114 pM IRAK4 kinase domain; 200 nM substrate; 5% DMSO
Counter-ions that a name gives are not always drawn.
MEASURED_METRIC: IC50 (nM)
The reply should contain only the number, in nM.

For orientation, consider the following solved cases.
CC(C)Oc1cc2c(O[C@@H]3CCN(C(=O)CC#N)C3)ccnc2cc1C(N)=O ... 82
CCC(=O)N1CCC[C@@H](Oc2ccnc3cc(C(N)=O)c(OC(C)C)cc23)C1 [Example 10, formate] ... 506
CC(C)Oc1cc2c(OC3CCNCC3)ccnc2cc1C(N)=O ... 184

Q: Field request: IC50 | item: CC(C)Oc1cc2c(O[C@@H]3CCN(C(=O)CC#N)C3)nccc2cc1C(N)=O [Example 2, formate]
A: 66

Q: CC(C)Oc1cc2c(O[C@@H]3CCCN(C(=O)[C@H](C)N)C3)ccnc2cc1C(N)=O [Example 7, formate] , same question.
A: 143
